# System: HCT-15 colon
# assay: NCI tumour cell line growth inhibition, 48 h
measured endpoint: TGI

Below: 3 compounds and their reported TGI.
compound string: Cn1c(=O)c(Oc2ccc(F)cc2F)cc2cnc(NC3CCOCC3)nc21
TGI: > 25 µM
//
compound string: O=C(O)CN(c1ccc(F)cc1)S(=O)(=O)c1ccccc1
TGI: > 100 µM
//
compound string: COc1cc(CCC(=O)NC[C@@H](O)c2ccccc2)ccc1O
TGI: > 100 µM

In the following, a different compound is considered.
Notebook: CC(C)c1ccc(/C=C/c2cc(C(=O)NNC(=O)NC3CCCCC3)nc(=S)[nH]2)cc1 , TGI read as > 100 µM

----------
# System: PC-3 prostate
# assay: NCI tumour cell line growth inhibition, 48 h
measured endpoint: TGI

Below: 4 compounds and their reported TGI.
compound: Cc1ccsc1C(=S)Nc1ccc(Cl)c(/C=N/OC(C)C)c1
tgt: PC-3 prostate
value observed: > 100 µM

compound: CC(=O)Nc1cc2nc3n(c2cc1C)CCC3OC(C)=O (configuration not stated)
tgt: PC-3 prostate
value observed: > 100 µM

compound: Nc1nn(C(=O)Nc2c(F)cccc2F)c2ccccc12
tgt: PC-3 prostate
value observed: > 100 µM

compound: COC(=O)Cn1c(=O)oc2nc(-c3ccccc3)cc(C(F)(F)F)c21
tgt: PC-3 prostate
value observed: > 100 µM

Notebook: Cn1cc(C2=C(c3cn(CCCCCO)c4ccccc34)C(=O)NC2=O)c2ccccc21 , TGI read as > 24.1 µM

Notebook: Cn1c(=O)ccc2c(=O)c3ccccc3oc21 , TGI read as > 100 µM

Notebook: CC1(C)CCC(C)(C)c2cc(NC(=O)c3ccc(C(=O)O)cc3)ccc21 , TGI read as > 70.6 µM

----------
# TGI per record follows
# Test system: NCI-H226 lung
# assay: NCI tumour cell line growth inhibition, 48 h

Below: 5 compounds and their reported TGI.
compound: CN1C(=O)C2(c3ccccc31)C1CC3C(CO1)C1C2C3(CO)CN1C#N (stereo not drawn)
TGI: > 100 µM
--
compound: CC(=O)Oc1ccc2cc(-c3ccc(OC(C)=O)c(OC(C)=O)c3)c(=O)oc2c1
TGI: > 100 µM
--
compound: O=S(=O)(O)c1ccc2c(N=Nc3ccccc3)c(O)ccc2c1
TGI: > 100 µM
--
compound: COc1cccc(C2SCc3nc4ccccc4n32)c1 (stereo not drawn)
TGI: > 100 µM
--
compound: [Cu+2].[NH-]C(CC(=O)O)C(=O)O.[NH-]C(CC(=O)O)C(=O)O (stereo not drawn)
TGI: > 100 µM

Test item O=C(O)CN(c1ccc(F)cc1)S(=O)(=O)c1ccccc1 ; NCI-H226 lung; reported TGI was > 100 µM

----------
# Tested on: KM12 colon
# assay: NCI tumour cell line growth inhibition, 48 h
# TGI per record follows

Notebook: Cc1ccc(C(=O)Nc2ncn(C3CC(O)C(CO)O3)c(=O)n2)cc1 (stereo not drawn) , TGI read as > 100 µM

Notebook: COc1cc2nc3cc([N+](=O)[O-])ccc3c(NCCNCC(C)O)c2cc1OC (stereo not drawn) , TGI read as 2.87 µM

----------
# Test system: PC-3 prostate
# assay: NCI tumour cell line growth inhibition, 48 h
measured endpoint: TGI

Notebook: O=c1[nH]c2cc([N+](=O)[O-])c(N/N=C/c3ccc(Cl)cc3Cl)c([N+](=O)[O-])c2[nH]1 , TGI read as > 100 µM

Notebook: Cc1cccc(C)c1N=Nc1ccc(O)c(CN(C)C)c1 , TGI read as > 100 µM

Notebook: O=c1c(-c2ccccc2)c(SCCN2CCOCC2)n(-c2ccccc2)c(=S)n1-c1ccccc1 , TGI read as > 100 µM

Notebook: CN(C)CC1CCC/C(=C\c2ccccc2)C1=O (centres undefined) , TGI read as 21 µM
